pIC50 tested on human GST-DYRK1A (Homo sapiens): recorded values
pIC50: −log10 of the molar value.

Molecule: C=CCNc1nc(Nc2ccc(S(=O)(=O)N3CCOCC3)cc2OC)nc2[nH]ccc12 [Example 246]
pIC50: 6.00 to 6.52
--
Molecule: COc1cc(S(=O)(=O)N2CCOCC2)ccc1Nc1nc(NCC2CCCC2)c2c(C#N)c[nH]c2n1 [Example 80]
pIC50: 6.00 to 6.52
--
Molecule: CCNc1nc(Nc2ccc(C(=O)N3CCN(C4COC4)CC3)c3c2OCCO3)nc2[nH]cc(C(F)(F)F)c12 [Example 400]
pIC50: > 7.00
--
Molecule: COc1cc(S(=O)(=O)N2CCC(N3CCOCC3)CC2)ccc1Nc1nc(NCC(C)C)c2c(C(F)(F)F)c[nH]c2n1 [Example 179]
pIC50: 6.00 to 6.52
--
Molecule: COc1cc(S(C)(=O)=O)ccc1Nc1nc(NC2CCC2)c2cc[nH]c2n1 [Example 24]
pIC50: 6.00 to 6.52

Request: Requested read-out pIC50, target or system human GST-DYRK1A (Homo sapiens), entry COc1cc(S(C)(=O)=O)ccc1Nc1nc(NCC2CCC2)c2c(C(F)(F)F)c[nH]c2n1 [Example 198]
Response: 6.00 to 6.52

Request: Requested read-out pIC50, target or system human GST-DYRK1A (Homo sapiens), entry CNc1nc(Nc2ccc(C(=O)N3CCC(N4CCOCC4)CC3)c3c2OCCO3)nc2[nH]cc(C(F)(F)F)c12 [Example 238]
Response: > 7.00

Request: Requested read-out pIC50, target or system human GST-DYRK1A (Homo sapiens), entry COc1cc(P2(=O)CCN(C3COC3)CC2)ccc1Nc1nc(NC(C)C)c2c(C#N)c[nH]c2n1 [Example 293]
Response: 6.52 to 7.00

* * *

target: LRRK2 (G2019S) (Homo sapiens, UniProt Q5S007, G2019S); experiment: ScanMAX Kinase analysis panel, LRRK2 (G2019S); type: binding; set-up: purchased DiscoverX Corp. (ScanMAX Kinase analysis panel, service); conditions: 1 μM in DMSO; <35% considered inhibitory; read-out: percent control (% control), LRRK2 (G2019S)
Sequence (Q5S007 whole entry G2019S): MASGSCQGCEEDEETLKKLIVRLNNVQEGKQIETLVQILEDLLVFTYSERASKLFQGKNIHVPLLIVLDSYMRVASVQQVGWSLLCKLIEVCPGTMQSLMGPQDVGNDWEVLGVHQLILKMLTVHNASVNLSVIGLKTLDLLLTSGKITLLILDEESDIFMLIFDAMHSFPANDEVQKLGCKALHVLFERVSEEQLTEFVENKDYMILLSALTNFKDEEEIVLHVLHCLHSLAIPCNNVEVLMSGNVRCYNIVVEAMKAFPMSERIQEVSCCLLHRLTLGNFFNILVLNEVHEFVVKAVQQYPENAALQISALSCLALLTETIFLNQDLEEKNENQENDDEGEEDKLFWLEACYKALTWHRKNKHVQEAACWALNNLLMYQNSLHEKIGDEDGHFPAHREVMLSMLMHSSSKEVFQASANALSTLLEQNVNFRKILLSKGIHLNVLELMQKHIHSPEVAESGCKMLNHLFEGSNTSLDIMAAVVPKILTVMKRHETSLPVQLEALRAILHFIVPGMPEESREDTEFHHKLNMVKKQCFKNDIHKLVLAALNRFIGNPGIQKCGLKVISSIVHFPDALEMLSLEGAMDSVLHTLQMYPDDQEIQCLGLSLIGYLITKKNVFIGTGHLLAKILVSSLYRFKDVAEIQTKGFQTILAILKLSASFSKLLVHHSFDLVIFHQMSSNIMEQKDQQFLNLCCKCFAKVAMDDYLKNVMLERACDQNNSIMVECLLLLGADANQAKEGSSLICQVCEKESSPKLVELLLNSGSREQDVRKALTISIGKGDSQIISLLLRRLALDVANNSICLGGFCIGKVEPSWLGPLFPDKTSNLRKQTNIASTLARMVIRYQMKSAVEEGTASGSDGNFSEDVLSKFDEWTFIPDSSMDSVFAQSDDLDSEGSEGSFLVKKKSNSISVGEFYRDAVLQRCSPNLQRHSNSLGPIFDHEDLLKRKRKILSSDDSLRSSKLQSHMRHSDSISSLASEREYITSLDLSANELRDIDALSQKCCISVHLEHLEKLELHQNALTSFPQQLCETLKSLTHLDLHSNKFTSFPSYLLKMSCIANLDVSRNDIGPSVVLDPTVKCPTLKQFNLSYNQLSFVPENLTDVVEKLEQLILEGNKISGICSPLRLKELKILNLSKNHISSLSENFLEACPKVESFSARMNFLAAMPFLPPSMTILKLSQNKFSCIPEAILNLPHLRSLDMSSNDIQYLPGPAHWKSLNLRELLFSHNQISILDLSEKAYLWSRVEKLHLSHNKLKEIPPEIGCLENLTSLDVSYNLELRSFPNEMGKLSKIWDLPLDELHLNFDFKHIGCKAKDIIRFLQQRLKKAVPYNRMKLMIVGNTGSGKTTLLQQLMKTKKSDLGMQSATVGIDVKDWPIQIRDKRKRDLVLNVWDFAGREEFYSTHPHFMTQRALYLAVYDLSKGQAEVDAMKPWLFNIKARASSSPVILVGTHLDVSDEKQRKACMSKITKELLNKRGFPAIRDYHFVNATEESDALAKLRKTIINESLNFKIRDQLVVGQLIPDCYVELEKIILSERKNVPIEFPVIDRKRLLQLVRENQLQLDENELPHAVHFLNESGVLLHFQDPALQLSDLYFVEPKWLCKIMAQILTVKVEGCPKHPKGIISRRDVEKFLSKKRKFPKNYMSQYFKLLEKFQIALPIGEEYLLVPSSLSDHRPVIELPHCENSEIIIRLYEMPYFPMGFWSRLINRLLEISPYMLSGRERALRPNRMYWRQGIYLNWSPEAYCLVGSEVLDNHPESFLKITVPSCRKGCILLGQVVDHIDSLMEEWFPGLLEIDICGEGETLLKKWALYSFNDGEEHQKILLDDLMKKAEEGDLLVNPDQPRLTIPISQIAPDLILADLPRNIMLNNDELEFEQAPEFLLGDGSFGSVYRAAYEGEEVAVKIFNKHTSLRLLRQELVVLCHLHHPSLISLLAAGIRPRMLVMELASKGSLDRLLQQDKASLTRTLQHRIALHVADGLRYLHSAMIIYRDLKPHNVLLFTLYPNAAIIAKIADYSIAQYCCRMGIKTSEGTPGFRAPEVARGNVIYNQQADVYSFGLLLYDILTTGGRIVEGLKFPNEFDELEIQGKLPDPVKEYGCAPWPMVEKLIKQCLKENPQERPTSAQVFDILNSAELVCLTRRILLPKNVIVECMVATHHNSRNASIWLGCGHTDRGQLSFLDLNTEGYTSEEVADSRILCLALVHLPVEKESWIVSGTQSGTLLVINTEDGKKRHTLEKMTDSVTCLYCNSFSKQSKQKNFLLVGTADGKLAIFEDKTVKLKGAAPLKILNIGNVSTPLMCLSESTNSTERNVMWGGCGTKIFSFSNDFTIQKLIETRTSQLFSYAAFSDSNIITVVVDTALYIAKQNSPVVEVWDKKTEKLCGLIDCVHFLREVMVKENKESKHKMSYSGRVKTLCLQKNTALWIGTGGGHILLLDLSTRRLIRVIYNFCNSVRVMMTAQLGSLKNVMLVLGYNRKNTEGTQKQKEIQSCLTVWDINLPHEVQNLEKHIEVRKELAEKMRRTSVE
Reported Metric: remaining binding at 1 µM (%)

Some compounds with known remaining binding at 1 µM results, for comparison:
Compound: C=CCNc1nc(Nc2ccc(S(=O)(=O)N3CCC(N4CCOCC4)CC3)cc2OC)nc2[nH]cc(C#N)c12
Uom: %
Value: 0

Compound: CCNc1nc(Nc2ccc(S(=O)(=O)N3CCC(N4CCOCC4)CC3)cc2OC)nc2[nH]cc(C(F)(F)F)c12 [Example 158, 2,2,2-trifluoroacetate]
Uom: %
Value: 3.6

Compound: CCCNc1nc(Nc2ccc(S(=O)(=O)N3CCC(N4CCOCC4)CC3)cc2OC)nc2[nH]cc(C(F)(F)F)c12
Uom: %
Value: 0

Compound: CNc1nc(Nc2ccc(C(=O)N3CCC(N4CCOCC4)CC3)c3c2OCCO3)nc2[nH]cc(C(F)(F)F)c12
Uom: %
Value: 0.05

[P] O=C(c1ccc(Nc2nc(C3CC3)c3c(C(F)(F)F)c[nH]c3n2)c2c1OCCO2)N1CCC(N2CCOCC2)CC1
[Q] CNc1nc(Nc2ccc(S(=O)(=O)N3CCC(N4CCOCC4)CC3)cc2OC)nc2[nH]cc(C(F)(F)F)c12 [Example 157, 2,2,2-trifluoroacetate]
Request: Hi, I'm comparing two records. Which one has the lower remaining binding at 1 µM, P or Q ? Your choice should be expressed through its label.
Response: P

* * *

pIC50: −log10 of the molar value.
pIC50 tested on human GST-CLK1 (Homo sapiens): recorded values
Sequence (P49759 129-484 limits assumed): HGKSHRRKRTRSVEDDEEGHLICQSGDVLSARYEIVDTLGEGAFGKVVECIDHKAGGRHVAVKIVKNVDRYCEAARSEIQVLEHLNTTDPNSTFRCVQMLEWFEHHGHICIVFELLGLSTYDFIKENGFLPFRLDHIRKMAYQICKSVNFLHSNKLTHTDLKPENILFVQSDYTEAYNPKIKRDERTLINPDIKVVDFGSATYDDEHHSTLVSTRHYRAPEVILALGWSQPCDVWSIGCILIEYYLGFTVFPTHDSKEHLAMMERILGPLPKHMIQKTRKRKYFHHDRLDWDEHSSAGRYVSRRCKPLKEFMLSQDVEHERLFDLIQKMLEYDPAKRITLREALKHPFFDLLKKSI

Some compounds with known pIC50 results, for comparison:
Compound: CNc1nc(Nc2ccc(C(=O)N3CCC(N4C[C@@H]5C[C@H]4CO5)CC3)c3c2OCC3)nc2[nH]cc(C(F)(F)F)c12
Experimental Target: human GST-CLK1 (Homo sapiens)
pIC50: > 7.00
--
Compound: CS(=O)(=O)CCNc1nc(Nc2ccc(C(=O)N3CCN(C4COC4)CC3)c3c2OCCO3)nc2[nH]cc(C(F)(F)F)c12
Experimental Target: human GST-CLK1 (Homo sapiens)
pIC50: > 7.00
--
Compound: COCCNc1nc(Nc2ccc(C(=O)N3CCOCC3)c3c2OCCO3)nc2[nH]cc(C(N)=O)c12
Experimental Target: human GST-CLK1 (Homo sapiens)
pIC50: 6.00 to 6.52
--
Compound: O=C(c1ccc(Nc2nc(NC3CCCC3)c3c(C(F)(F)F)c[nH]c3n2)c2c1OCCO2)N1CCN(C2COC2)CC1
Experimental Target: human GST-CLK1 (Homo sapiens)
pIC50: > 7.00
--
Compound: CCNc1nc(Nc2ccc(S(=O)(=O)N3CCC(N4CCOCC4)CC3)cc2OC)nc2[nH]cc(C#N)c12
Experimental Target: human GST-CLK1 (Homo sapiens)
pIC50: > 7.00
--
Compound: CC(C)Nc1nc(Nc2ccc(C(=O)N3CCC(N4CCOCC4)CC3)c3c2OCCO3)nc2[nH]cc(C#N)c12
Experimental Target: human GST-CLK1 (Homo sapiens)
pIC50: > 7.00
--
Compound: CC(C)CNc1nc(Nc2ccc(C(=O)N3CCOCC3)c3c2OCC3)nc2[nH]cc(C#N)c12
Experimental Target: human GST-CLK1 (Homo sapiens)
pIC50: > 7.00
--
Compound: COc1cc(S(C)(=O)=O)ccc1Nc1nc(NC2CC2)c2cc[nH]c2n1
Experimental Target: human GST-CLK1 (Homo sapiens)
pIC50: 6.00 to 6.52
--
Compound: CCNc1nc(Nc2ccc(S(=O)(=O)N3CCC(N4CCOCC4)CC3)c3c2OCC3)nc2[nH]cc(C(F)(F)F)c12
Experimental Target: human GST-CLK1 (Homo sapiens)
pIC50: 6.00 to 6.52
--
Compound: COc1cc(S(C)(=O)=O)ccc1Nc1nc(NC(C)C)c2c(C(F)(F)F)c[nH]c2n1
Experimental Target: human GST-CLK1 (Homo sapiens)
pIC50: 6.00 to 6.52

Request: Requested read-out pIC50, target or system human GST-CLK1 (Homo sapiens), entry CCNc1nc(Nc2ccc(C(=O)N3CCN(C4COC4)CC3)c3c2OCCO3)nc2[nH]cc(C#N)c12
Response: 6.52 to 7.00

Request: Requested read-out pIC50, target or system human GST-CLK1 (Homo sapiens), entry COc1cc(P(C)(C)=O)ccc1Nc1nc(NCC2CC2)c2c(C#N)c[nH]c2n1
Response: 6.52 to 7.00

* * *

Overview of recorded inhibition at 0.5 µM for various compounds
Test system: IL-6
Assay: Inhibition of LPS-induced IL-6 secretion of THP-1 monocytes (ELISA)
Format: cell-based, human
Conditions: Homo sapiens, THP-1; compound 0.5 μM, LPS 500 ng/mL, 24 hours; read-out: THP1/IL6 (% inhib)
Method: To evaluate an inhibitory effect on cytokine secretion of monocytes, THP-1 cells (ATCC, #TIB-202) as a human-derived monocyte line were cultured in an RPMI-1640 (Hyclone, SH30027.01) medium supplemented with 10% fetal bovine serum (Hyclone, SH30084.03), 1% penicillin streptomycin (Welgene, LS202-02), and 50 μM 2-mercaptoethanol (Gibco, #21985023). […]
The reply should contain only the number, in %.

Some compounds with known inhibition at 0.5 µM results, for comparison:
Smiles String: CNc1nc(Nc2ccc(C(=O)N3CC[C@H](N4CCOCC4)C3)c3c2OCC3)nc2[nH]cc(C(F)(F)F)c12
inhibition at 0.5 µM / %: 22.9

Smiles String: O=C(c1ccc(Nc2nc(NC3CCC3)c3c(C(F)(F)F)c[nH]c3n2)c2c1OCCO2)N1CCN(C2COC2)CC1
inhibition at 0.5 µM / %: 20.2

Request: Any idea what inhibition at 0.5 µM was measured for O=C(c1ccc(Nc2nc(NC3CCOCC3)c3c(C(F)(F)F)c[nH]c3n2)c2c1OCCO2)N1CCN(C2COC2)CC1 ?
Response: 20.2

Request: Any idea what inhibition at 0.5 µM was measured for CCNc1nc(Nc2ccc(C(=O)N3CC[C@H](N4CCOCC4)C3)c3c2OCC3)nc2[nH]cc(C(F)(F)F)c12 ?
Response: 42.5

Request: Any idea what inhibition at 0.5 µM was measured for O=C(c1ccc(Nc2nc(C3CC3)c3c(C(F)(F)F)c[nH]c3n2)c2c1CCO2)N1CC[C@H](N2CCOCC2)C1 ?
Response: 31.5

Request: Any idea what inhibition at 0.5 µM was measured for CCNc1nc(Nc2ccc(C(=O)N3CCC(N4C[C@@H]5C[C@H]4CO5)CC3)c3c2OCC3)nc2[nH]cc(C(F)(F)F)c12 ?
Response: 22.4

Request: Any idea what inhibition at 0.5 µM was measured for COc1cc(P2(=O)CCN(C3CCOCC3)CC2)ccc1Nc1nc(NC2CC2)c2c(C(F)(F)F)c[nH]c2n1 ?
Response: 22.2

Data origin: patent US20230066011A1
